Attribution: patent EP4610269A1

The following compounds are listed with their measured Kd values.
target: human uPAR (uPAR-Fc) (Homo sapiens); construct: comprising amino acids Leu23-Arg303 according to UniProt entry Q03405.1; purchased R&D Systems 10378-UK-100; test: Surface plasmon resonance (SPR) assay, single cycle kinetics; type: binding; conditions: pKD category for uPAR SPR activity assay; uPAR-Fc on Protein A-Chip, 25°C; read-out: pKD CAT (converted)
Sequence (Q03405 23-303): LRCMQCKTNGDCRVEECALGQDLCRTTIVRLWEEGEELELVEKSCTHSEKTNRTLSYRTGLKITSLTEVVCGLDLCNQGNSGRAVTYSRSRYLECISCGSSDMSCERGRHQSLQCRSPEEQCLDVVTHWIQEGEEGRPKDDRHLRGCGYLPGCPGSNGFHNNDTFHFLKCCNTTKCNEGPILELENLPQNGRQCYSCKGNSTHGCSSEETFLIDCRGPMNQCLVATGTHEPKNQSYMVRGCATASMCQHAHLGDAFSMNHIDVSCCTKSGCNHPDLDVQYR
Where a SMILES comes first, the peptide text is derived from it. Bridges are numbered along the chain shown (N, C = ends). [ ]: non-standard residue; d: D form. The star is where a group is joined. DOTA = O=C(O)CN1CCN(CC(=O)O)CCN(CC(=O)*)CCN(CC(=O)O)CC1; X8 = O=C(CN(CC(=O)NC(CO)(CO)CO)CC(=O)*)NC(CO)(CO)CO; Hyp = O=C(O)[C@@H]1C[C@@H](O)CN1; Pentanoyl(4-Me) = CC(C)CCC(=O)*; Cit = NC(=O)NCCC[C@H](N)C(=O)O; dNva = CCC[C@@H](N)C(=O)O; Orn = NCCC[C@H](N)C(=O)O; Api = NC1(C(=O)O)CCNCC1; Nva = CCC[C@H](N)C(=O)O; Pentanoyl = CCCCC(=O)*; X7 = CCCOCC(=O)*

As a guide, the following entries are already answered.
{"columns": ["compound", "test_target", "Kd"],
 "data": [
  ["CCCCC(=O)N[C@H]1CSSC[C@@H](C(N)=O)NC(=O)[C@H](CCC)NC(=O)[C@H]([C@@H](C)CC)NC(=O)[C@@H](CCC)NC(=O)[C@@H]2CCCN2C(=O)[C@H](Cc2ccccc2)NC(=O)[C@H](Cc2ccc(O)cc2)NC(=O)[C@H](CCC(N)=O)NC(=O)[C@H](CCCNC(=N)N)NC1=O [UPAR-322] (Pentanoyl-CRQYFP[dNva]I[Nva]C-NH2; disulfide 1-10)", "human uPAR (uPAR-Fc) (Homo sapiens)", "1.58 to 10 nM"],
  ["CC[C@H](C)[C@@H]1NC(=O)C2(CCN(C(=O)CN3CCN(CC(=O)O)CCN(CC(=O)O)CCN(CC(=O)O)CC3)CC2)NC(=O)[C@@H]2CCCN2C(=O)[C@H](Cc2ccccc2)NC(=O)[C@H](Cc2ccc(O)cc2)NC(=O)[C@H](CCC(N)=O)NC(=O)[C@H](CCCNC(=N)N)NC(=O)[C@@H](NC(=O)CCC(C)C)CSSC[C@@H](C(N)=O)NC(=O)[C@H](CC(C)C)NC1=O [UPAR-152] ({Pentanoyl(4-Me)}-CRQYFP[Api](DOTA)ILC-NH2; disulfide 1-10)", "human uPAR (uPAR-Fc) (Homo sapiens)", "< 1.58 nM"],
  ["CCCCC(=O)N[C@H]1CSSC[C@@H](C(N)=O)NC(=O)[C@H](CCC)NC(=O)[C@H]([C@@H](C)CC)NC(=O)[C@@H]2C[C@@H](O)CN2C(=O)[C@@H]2CCCN2C(=O)[C@H](Cc2ccccc2)NC(=O)[C@H](Cc2ccc(O)cc2)NC(=O)[C@H](CCCCNC(=O)CN2CCN(CC(=O)O)CCN(CC(=O)O)CCN(CC(=O)O)CC2)NC(=O)[C@H](CCCNC(=O)CN(CC(=O)NC(CO)(CO)CO)CC(=O)NC(CO)(CO)CO)NC1=O [UPAR-224] (Pentanoyl-C[Orn](X8)K(DOTA)YFP[Hyp]I[Nva]C-NH2; disulfide 1-10)", "human uPAR (uPAR-Fc) (Homo sapiens)", "< 1.58 nM"]
]}

Moving on to the next compound.
The recorded Kd for entry CCCOCC(=O)N[C@H]1CSSC[C@@H](C(N)=O)NC(=O)[C@H](CC(C)C)NC(=O)[C@H]([C@@H](C)CC)NC(=O)[C@@H](C)NC(=O)[C@@H]2CCCN2C(=O)[C@H](Cc2ccccc2)NC(=O)[C@H](Cc2ccc(O)cc2)NC(=O)[C@H](CCC(N)=O)NC(=O)[C@H](CCCNC(N)=O)NC1=O [UPAR-212] (X7-C[Cit]QYFP[dA]ILC-NH2; disulfide 1-10) equals 10 to 100 nM
